Catalogue of FACS-Seq fitted mean (log10) readings, one per entry.
B1: library; a variant is named by its letters at N, in order (parent)
chain: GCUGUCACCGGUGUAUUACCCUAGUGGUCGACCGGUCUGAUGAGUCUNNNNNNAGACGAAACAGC

# Variants of: B1
# experimentalDetails: FACS-Seq fitted mean relative fluorescence mCherry/BFP with ligand (log10 relative fluorescence); ligand: hypoxanthine (xanthine aptamer); ligand concentration (+) FACS-Seq: 5 mM; higher = higher reporter protein expression
# experimentalParameters: HEK293T, ligand present: yes

| sequence | FACS-Seq fitted mean (log10) |
| --- | --- |
| GCUGUCACCGGUGUAUUACCCUAGUGGUCGACCGGUCUGAUGAGUCUUGACGGAGACGAAACAGC [UGACGG] | 0.646 |
| GCUGUCACCGGUGUAUUACCCUAGUGGUCGACCGGUCUGAUGAGUCUCUAUUAAGACGAAACAGC [CUAUUA] | 0.484 |
| GCUGUCACCGGUGUAUUACCCUAGUGGUCGACCGGUCUGAUGAGUCUUGGCGAAGACGAAACAGC [UGGCGA] | 0.579 |
| GCUGUCACCGGUGUAUUACCCUAGUGGUCGACCGGUCUGAUGAGUCUGAUUGUAGACGAAACAGC [GAUUGU] | 0.601 |
| GCUGUCACCGGUGUAUUACCCUAGUGGUCGACCGGUCUGAUGAGUCUAAGCUGAGACGAAACAGC [AAGCUG] | 0.481 |
| GCUGUCACCGGUGUAUUACCCUAGUGGUCGACCGGUCUGAUGAGUCUUCACAUAGACGAAACAGC [UCACAU] | 0.26 |
| GCUGUCACCGGUGUAUUACCCUAGUGGUCGACCGGUCUGAUGAGUCUAAUUUGAGACGAAACAGC [AAUUUG] | 0.468 |
| GCUGUCACCGGUGUAUUACCCUAGUGGUCGACCGGUCUGAUGAGUCUUCUAUCAGACGAAACAGC [UCUAUC] | 0.59 |
| GCUGUCACCGGUGUAUUACCCUAGUGGUCGACCGGUCUGAUGAGUCUAGGGUCAGACGAAACAGC [AGGGUC] | 0.51 |
| GCUGUCACCGGUGUAUUACCCUAGUGGUCGACCGGUCUGAUGAGUCUAUCAAGAGACGAAACAGC [AUCAAG] | 0.339 |
| GCUGUCACCGGUGUAUUACCCUAGUGGUCGACCGGUCUGAUGAGUCUGAAACAAGACGAAACAGC [GAAACA] | 0.389 |
| GCUGUCACCGGUGUAUUACCCUAGUGGUCGACCGGUCUGAUGAGUCUACUAAUAGACGAAACAGC [ACUAAU] | 0.628 |
| GCUGUCACCGGUGUAUUACCCUAGUGGUCGACCGGUCUGAUGAGUCUAGUUCAAGACGAAACAGC [AGUUCA] | 0.417 |
| GCUGUCACCGGUGUAUUACCCUAGUGGUCGACCGGUCUGAUGAGUCUGCAUUGAGACGAAACAGC [GCAUUG] | 0.602 |
| GCUGUCACCGGUGUAUUACCCUAGUGGUCGACCGGUCUGAUGAGUCUUGAAACAGACGAAACAGC [UGAAAC] | 0.259 |
| GCUGUCACCGGUGUAUUACCCUAGUGGUCGACCGGUCUGAUGAGUCUUAGAAUAGACGAAACAGC [UAGAAU] | 0.62 |
